Could you please report measured growth inhibition for the items listed next?
Test: NCI Yeast Anticancer Drug Screen. Data for the mec2-1 strain (AID 157)
Conditions: S. cerevisiae mec2-1 strain, at 100.0 µM, active compounds read high
Compounds without any hit were thinned out: in the full panel of roughly 79,000, 15% have a hit. Calls of active or inactive are those of the source. Cut-off read from the data, not from the text of the source: active = growth inhibition above about 70%; inactive = the rest.

The following compounds have reported results that may help.
- compound: "Cc1[nH]nc(C(F)(F)F)c1N=NN(C)C"
  parameter: "growth inhibition"
  val: "98% (active)"
- compound: "O=C(Nc1ccn(C2CC(O)C(COC(c3ccccc3)(c3ccccc3)c3ccccc3)O2)c(=O)n1)c1ccccc1 (configuration not stated)"
  parameter: "growth inhibition"
  val: "88% (active)"
- compound: "CCOc1ccc2ccc3cccnc3c2n1"
  parameter: "growth inhibition"
  val: "35% (inactive)"
- compound: "CNC(=O)OCc1c(COC(=O)NC)c(C)n(-c2ccc(Cl)c(Cl)c2)c1C"
  parameter: "growth inhibition"
  val: "99% (active)"
- compound: "CN(C)CCNC(=O)c1cccc2nc3c4ccccc4c4ccccc4c3nc12"
  parameter: "growth inhibition"
  val: "94% (active)"
- compound: "O=Cc1ccccc1B(O)O"
  parameter: "growth inhibition"
  val: "100% (active)"
- compound: "O=c1[nH]cc(F)c(=O)[nH]1"
  parameter: "growth inhibition"
  val: "9% (inactive)"
- compound: "CCOC(=O)/C=C1\\CCCn2c1ncc(C(=O)OCC)c2=O"
  parameter: "growth inhibition"
  val: "32% (inactive)"
- compound: "Cc1cccc(N2CCN(C(=O)/C(=C/c3ccccc3)NC(=O)c3ccccc3)CC2)c1"
  parameter: "growth inhibition"
  val: "43% (inactive)"
- compound: "CSc1ccc2c(c1)C(N1CCN(C)CC1)Cc1ccccc1S2 (configuration not stated)"
  parameter: "growth inhibition"
  val: "99% (active)"

Batch request: growth inhibition per item, same order as input.
1. CC(=O)CC[N+](C)(C)C
2. CCN(CC)c1cccc(Nc2nc3ccccc3s2)c1

1. 4% (inactive)
2. 8% (inactive)

###

Assay: NCI Yeast Anticancer Drug Screen. Data for the wt2 strain (AID 169);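 note: 0% = growth of vehicle-treated yeast cultures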
Conditions: S. cerevisiae wt2 strain growth inhibition; at 100.0 µM; active compounds read high
The panel holds about 79,000 compounds, 15% with a hit somewhere; the sample as a whole holds those more often. Starred links: 1 amine or outer side, 2 acyl side, 3 side chain; linkers in the order of their positions; H or OH if unused. Positions of bridges follow the written chain, without caps; N, C: chain ends. Non-standard residues stand in square brackets, D forms with d. Residues, ends and D or L forms follow the SMILES beside them. Chains are numbered I, II in the order given. Actinocin(9to1) = Cc1c2oc3c(C)ccc(C(=O)[*:1])c3nc-2c(C(=O)[*:2])c(N)c1=O; aThr = C[C@H](O)[C@H](N)C(=O)O; NMeV = CN[C@H](C(=O)O)C(C)C; Sar = CNCC(=O)O
Respond with 1.0 for growth inhibition values of 50% and above, 0.0 for values below.

Would you please look over these solved cases?
- compound: "CNc1ccc2[nH]c3ccccc3c2c1"
  category: 1.0
- compound: "CC1=NN(C(=O)CC(=O)N(C(=O)c2ccccc2)c2ccc(Cl)cc2)C(=O)C1N=Nc1ccc([N+](=O)[O-])cc1 (stereo not drawn)"
  category: 1.0
- compound: "Cc1ccc(P(c2ccc(C)cc2)c2ccc(C)cc2)cc1"
  category: 0.0

Is the recorded value of growth inhibition equal to or greater than 50% for this compound? C=Cc1c(C)c(O)cc2c1-c1ccc(O)c(C)c1CC2
1.0

Is the recorded value of growth inhibition equal to or greater than 50% for this compound? O=C(c1c(F)c(F)c(F)c(F)c1F)c1c(F)c(F)c(F)c(F)c1F
1.0

Is the recorded value of growth inhibition equal to or greater than 50% for this compound? CN(C)CCC(=O)c1c[nH]c2ccccc12
0.0

Is the recorded value of growth inhibition equal to or greater than 50% for this compound? O=[N+]([O-])c1ccc2nnnn2c1
0.0

Is the recorded value of growth inhibition equal to or greater than 50% for this compound? CC(C)c1ccc(C2NC(=S)NC3=C2c2ccccc2C3=O)cc1 (stereo not drawn)
0.0

Is the recorded value of growth inhibition equal to or greater than 50% for this compound? CCCCCCC(CCl)c1sc(-c2csc(CCNC(=O)OC(C)(C)C)n2)nc1C(=O)OC (stereo not drawn)
1.0

Is the recorded value of growth inhibition equal to or greater than 50% for this compound? Oc1ccc(Br)cc1C=Nc1cccc(C(F)(F)F)c1
1.0

Is the recorded value of growth inhibition equal to or greater than 50% for this compound? Cc1cccc(N2CCN(C(=O)/C(=C/c3ccccc3)NC(=O)c3ccccc3)CC2)c1
0.0

Is the recorded value of growth inhibition equal to or greater than 50% for this compound? O=Cn1c2ccccc2c2ccccc21
0.0

Is the recorded value of growth inhibition equal to or greater than 50% for this compound? Cc1c2oc3c(C)ccc(C(=O)N[C@@H]4C(=O)N[C@H](C(C)C)C(=O)N5CCC[C@H]5C(=O)N(C)CC(=O)N(C)[C@@H](C(C)C)C(=O)O[C@H]4C)c3nc-2c(C(=O)N[C@@H]2C(=O)N[C@H](C(C)C)C(=O)N3CCC[C@H]3C(=O)N(C)CC(=O)N(C)[C@@H](C(C)C)C(=O)O[C@H]2C)c(N)c1=O (I: [aThr][dV]P[Sar][NMeV] / II: [aThr][dV]P[Sar][NMeV]; ester I:1-I:C, II:1-II:C; linker I:N-II:N via Actinocin(9to1))
1.0

Is the recorded value of growth inhibition equal to or greater than 50% for this compound? O=C1OC(c2ccc(Cl)cc2)Sc2ccccc21 (stereo not drawn)
1.0

Is the recorded value of growth inhibition equal to or greater than 50% for this compound? CCCCCC(=O)C(C)(c1nc2n(c1O)/C(=N/C(=O)Nc1ccc(Cl)cc1)N=N2)c1nc2n(c1O)/C(=N/C(=O)Nc1ccc(Cl)cc1)N=N2
0.0

Is the recorded value of growth inhibition equal to or greater than 50% for this compound? CC(C)OC(CCC#N)c1ccc(Cl)cc1 (stereo not drawn)
0.0

Is the recorded value of growth inhibition equal to or greater than 50% for this compound? CCOC(=O)C1=C(C)NC(C)=C(C(=O)OCC)C1c1cccc([N+](=O)[O-])c1
1.0

Is the recorded value of growth inhibition equal to or greater than 50% for this compound? O=c1c(Br)cc2c(-c3ccccc3)c3cc(Br)c(O)c(Br)c3oc-2c1Br
0.0
